Overview of reported pKd across a group of binders:
target: T1, cynomolgus monkey CRTh2 (cynomolgus monkey, UniProt Q9Y5Y4 1-395 (human entry))
T1 construct: also native on primary cyno basophils and eosinophils; also called cyno CRTh2; cynomologous CRTh2
T1 chain: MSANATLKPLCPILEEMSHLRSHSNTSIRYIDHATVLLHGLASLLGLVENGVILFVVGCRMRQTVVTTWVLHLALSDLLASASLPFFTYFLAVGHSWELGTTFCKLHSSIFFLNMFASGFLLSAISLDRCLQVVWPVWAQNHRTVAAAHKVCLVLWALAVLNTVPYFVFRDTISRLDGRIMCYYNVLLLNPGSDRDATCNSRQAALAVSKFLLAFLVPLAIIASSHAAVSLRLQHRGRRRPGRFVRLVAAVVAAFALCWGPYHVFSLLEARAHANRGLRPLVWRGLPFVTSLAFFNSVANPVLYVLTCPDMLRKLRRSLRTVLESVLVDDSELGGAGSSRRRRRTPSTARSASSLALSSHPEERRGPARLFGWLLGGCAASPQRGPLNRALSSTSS
experimental details: radioligand cell binding assay (Scatchard), Fab, 293 cells expressing cynomolgus monkey CRTh2
Protocol: After the 2-hour incubation, the competition reactions were transferred to a Millipore Multiscreen filter plate and washed 4 times with binding buffer to separate the free from bound iodinated antibody. The filters were counted on a Wallac Wizard 1470 gamma counter. […]
pKd: −log10 of the molar value.
measurement kind: pKd

h19A2.v12 Fab fragment (Fab, V domains shown, Fab fragment of the humanized IgG, 125I-labelled in the radioligand assay; also called h19A2.v12 (Fab fragment of IgG); h19A2.12) VH: EVQLVESGGGLVQPGGSLRLSCAASGFTFSSYSMSWVRQAPGKGLEWVAYISNGGSTTDYPGTVEGRFTISRDNSKNTLYLQMNSLRAEDTAVYYCARHRTNWDFDYWGQGTLVTVSS VL: DIQMTQSPSSLSASVGDRVTITCRASENIYWNLAWYQQKPGKAPKLVVYAATQLADGVPSRFSGSGSGTDYTLTISSLQPEDFATYYCQHFWITPWTFGQGTKVEIK ... 6.82
h19A2.v52 Fab fragment (Fab, V domains shown, Fab fragment of the humanized IgG; also called h19A2.v52 (Fab fragment of IgG); h19A2.52) VH: EVQLVESGGGLVQPGGSLRLSCAASGFTFSSYLMSWVRQAPGKGLEWVARISNGGSTTDYPGTVEGRFTISRDNSKNTLYLQMNSLRAEDTAVYYCARHRTNWDFDYWGQGTLVTVSS VL: DIQMTQSPSSLSASVGDRVTITCRASENIYYNLAWYQQKPGKAPKLVVYAATQLADGVPSRFSGSGSGTDYTLTISSLQPEDFATYYCQHFWITPWTFGQGTKVEIK ... 7.67
h19A2.v46 Fab fragment (Fab, V domains shown, Fab fragment of the humanized IgG; also called h19A2.v46 (Fab fragment of IgG)) VH: EVQLVESGGGLVQPGGSLRLSCAASGFTFSSYLMSWVRQAPGKGLEWVARISNGGSTTDYPGTVEGRFTISRDNSKNTLYLQMNSLRAEDTAVYYCARHRTNWDFDYWGQGTLVTVSS VL: DIQMTQSPSSLSASVGDRVTITCRASENIYWNLAWYQQKPGKAPKLVVYAATQLADGVPSRFSGSGSGTDYTLTISSLQPEDFATYYCQHFWITPWTFGQGTKVEIK ... 8.07
h19A2.v60 Fab fragment (Fab, V domains shown, Fab fragment of the humanized IgG; also called h19A2.v60 (Fab fragment of IgG)) VH: EVQLVESGGGLVQPGGSLRLSCAASGFTFSSYLMSWVRQAPGKGLEWVARISNGGSTTDYPGTVEGRFTISRDNSKNTLYLQMNSLRAEDTAVYYCARHRTNWDFDYWGQGTLVTVSS VL: DIQMTQSPSSLSASVGDRVTITCRASENIYYNLAWYQQKPGKAPKLLIYAATQLAEGVPSRFSGSGSGTDYTLTISSLQPEDFATYYCQHFWITPWTFGQGTKVEIK ... 7.41
